Experimental Protocol: chemical genetic growth profiling, strain panel (AID 1159580);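 also: tested at 20 µM; growth read once vehicle control cultures reached saturation at 30 °C; 1 = growth at the plate median or of vehicle wells; lower values mean less growth of the strain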
Measurement Context: S. cerevisiae strains, growth OD, strain wild type, stronger effect = lower value
The whole screen tested about 5,500 compounds, of which about 2,000 (36%) were called active. Not shown: some 18% with an inconclusive outcome. This is one part of the list.
In this section we review reported normalized growth values for a set of molecules.
Please reply with the value in numeric form only.

Some molecules with recorded normalized growth:
CC[C@H]1OC(=O)[C@H](C)[C@@H](O[C@H]2C[C@@](C)(OC)[C@@H](O)[C@H](C)O2)[C@H](C)[C@@H](O[C@@H]2O[C@H](C)C[C@H](N(C)C)[C@H]2O)[C@](C)(O)C[C@@H](C)[C@@H]2N[C@@H](COCCOC)O[C@H]([C@H]2C)[C@]1(C)O
1.02
CC(=O)Oc1cccc2c1C(=O)c1c(OC(C)=O)cc(C(=O)O)cc1C2=O
0.998
CC(=O)c1cc2ccccc2oc1=O
1.03

Turning to the following molecule.
Exam item: Entry under review: NC[C@H]1O[C@H](O[C@H]2[C@H](O)[C@@H](O[C@H]3O[C@H](CO)[C@@H](O)[C@H](N)[C@H]3O)[C@H](N)C[C@@H]2N)[C@H](N)C[C@@H]1O . Reported normalized growth?
Marked response: 0.998
